Would you mind telling me the reported self-splicing fitness (ln) of each entry?
- protocolText: self-splicing fitness, log relative to wild type (ln ratio); higher = more splicing; Tetrahymena group I intron in knt gene, E. coli kanamycin selection, DiMSum; sequences stand for … in CUCUCU…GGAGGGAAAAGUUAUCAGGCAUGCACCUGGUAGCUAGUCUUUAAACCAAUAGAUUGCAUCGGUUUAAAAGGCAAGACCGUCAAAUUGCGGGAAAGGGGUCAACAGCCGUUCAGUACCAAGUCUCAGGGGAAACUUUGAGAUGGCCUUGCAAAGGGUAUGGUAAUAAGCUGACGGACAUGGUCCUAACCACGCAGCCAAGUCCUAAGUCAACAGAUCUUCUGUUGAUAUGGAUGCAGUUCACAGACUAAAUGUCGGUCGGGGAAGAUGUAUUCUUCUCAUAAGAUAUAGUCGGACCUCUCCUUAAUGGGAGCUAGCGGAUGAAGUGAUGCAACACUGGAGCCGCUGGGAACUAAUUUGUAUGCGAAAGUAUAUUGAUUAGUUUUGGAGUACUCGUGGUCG;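 also: selection with 25 µg/mL kanamycin versus none on LB agar overnight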
- measurementConditions: 30 °C
Provide a numeric answer; units are not to be included.

For record CUCCAGCAAUAUUACGGAUG the listed self-splicing fitness (ln) is -2.46

For record GAUAAGCAAUAUUACGUACG the listed self-splicing fitness (ln) is -1.67

For record UACGAGCAAUAUUACGACUU the listed self-splicing fitness (ln) is -2.11

For record UUAGAGCAAUAUUACGCCAU the listed self-splicing fitness (ln) is -2.82

For record ACGAAGCAAUAUUACGGCGC the listed self-splicing fitness (ln) is -0.589

For record GACCAGCAAUAUUACGGUGU the listed self-splicing fitness (ln) is -0.661

For record AAGAAGCAAUAUUACGGGAA the listed self-splicing fitness (ln) is -1.79

For record ACUUAGCAAUAUUACGUAUA the listed self-splicing fitness (ln) is -3.22

For record CAAUAGCAAUAUUACGGAAG the listed self-splicing fitness (ln) is -1.36

For record AUGCAGCAAUAUUACGCGUA the listed self-splicing fitness (ln) is -2.09

For record CCGUAGCAAUAUUACGCGUA the listed self-splicing fitness (ln) is -3.69

For record GGACAGCAAUAUUACGCUAA the listed self-splicing fitness (ln) is -0.66

For record GAGAAGCAAUAUUACGCUCU the listed self-splicing fitness (ln) is -3.26

For record GUUUAGCAAUAUUACGACUA the listed self-splicing fitness (ln) is -0.518

For record GCUGAGCAAUAUUACGGUUU the listed self-splicing fitness (ln) is -1.86

For record CAUAAGCAAUAUUACGGCGG the listed self-splicing fitness (ln) is 0.324

For record CGACAGCAAUAUUACGCGAG the listed self-splicing fitness (ln) is -1.5

For record CGUAAGCAAUAUUACGUUCG the listed self-splicing fitness (ln) is -0.989

For record GAGUAGCAAUAUUACGGCCC the listed self-splicing fitness (ln) is -0.847

For record GGCAAGCAAUAUUACGUCUC the listed self-splicing fitness (ln) is -0.496

For record CGAGAGCAAUAUUACGGUGC the listed self-splicing fitness (ln) is -3.73

For record GCCCAGCAAUAUUACGGGCA the listed self-splicing fitness (ln) is -2.35

For record ACCUAGCAAUAUUACGAUCC the listed self-splicing fitness (ln) is -2.35

For record GGCUAGCAAUAUUACGAGGU the listed self-splicing fitness (ln) is -3.02

For record UUACAGCAAUAUUACGUGCU the listed self-splicing fitness (ln) is -3.78

For record GGAAAGCAAUAUUACGAUCC the listed self-splicing fitness (ln) is -3.2

For record ACUUAGCAAUAUUACGCAGU the listed self-splicing fitness (ln) is -3.83

For record CGGGAGCAAUAUUACGACGA the listed self-splicing fitness (ln) is -1.82

For record CUAGAGCAAUAUUACGAAAG the listed self-splicing fitness (ln) is -0.33

For record AGUCAGCAAUAUUACGAUUA the listed self-splicing fitness (ln) is 0.011

For record ACUAAGCAAUAUUACGUAUU the listed self-splicing fitness (ln) is -2.09

For record GCGGAGCAAUAUUACGGACG the listed self-splicing fitness (ln) is -3.15

For record CUGCAGCAAUAUUACGGCAC the listed self-splicing fitness (ln) is -3.13

For record UUCGAGCAAUAUUACGGCGG the listed self-splicing fitness (ln) is -1.3

For record GAGCAGCAAUAUUACGCGUC the listed self-splicing fitness (ln) is -3.39

For record CCUAAGCAAUAUUACGCCAC the listed self-splicing fitness (ln) is -2.75

For record CUCGAGCAAUAUUACGCAAU the listed self-splicing fitness (ln) is -3.57

For record GAGUAGCAAUAUUACGGUCG the listed self-splicing fitness (ln) is -1.15

For record GUAAAGCAAUAUUACGACUC the listed self-splicing fitness (ln) is 0.441

For record GAAUAGCAAUAUUACGCCCU the listed self-splicing fitness (ln) is -0.167

For record GGCAAGCAAUAUUACGUACG the listed self-splicing fitness (ln) is -0.191

For record GAUGAGCAAUAUUACGGCGU the listed self-splicing fitness (ln) is -0.735

For record CCCAAGCAAUAUUACGUUGC the listed self-splicing fitness (ln) is -3.18

For record UCCGAGCAAUAUUACGGACG the listed self-splicing fitness (ln) is -3.59

For record UAUAAGCAAUAUUACGCGGA the listed self-splicing fitness (ln) is -2.14

For record ACUUAGCAAUAUUACGCACA the listed self-splicing fitness (ln) is -1.26

For record CAUGAGCAAUAUUACGAGCA the listed self-splicing fitness (ln) is -3.68

For record AGUAAGCAAUAUUACGUGAG the listed self-splicing fitness (ln) is -3.88

For record UCUCAGCAAUAUUACGAAUA the listed self-splicing fitness (ln) is -2.57

For record CGGUAGCAAUAUUACGGGAU the listed self-splicing fitness (ln) is -3.86

For record GAUCAGCAAUAUUACGACGC the listed self-splicing fitness (ln) is -0.169

For record CUCCAGCAAUAUUACGAUAU the listed self-splicing fitness (ln) is -2.46

For record CGAAAGCAAUAUUACGCAGG the listed self-splicing fitness (ln) is -2.16

For record AAUAAGCAAUAUUACGAGCG the listed self-splicing fitness (ln) is -1.5

For record GCUCAGCAAUAUUACGACGU the listed self-splicing fitness (ln) is 0.0949

For record GAGGAGCAAUAUUACGUCAU the listed self-splicing fitness (ln) is -2.41

For record CGGUAGCAAUAUUACGACUG the listed self-splicing fitness (ln) is -2.54

For record GUCCAGCAAUAUUACGGACA the listed self-splicing fitness (ln) is -2.84

For record UCCUAGCAAUAUUACGGAAG the listed self-splicing fitness (ln) is -3.41

For record UUAAAGCAAUAUUACGCUCC the listed self-splicing fitness (ln) is -1.79

For record CCCGAGCAAUAUUACGAGCU the listed self-splicing fitness (ln) is -3.75

For record GCCUAGCAAUAUUACGCCGC the listed self-splicing fitness (ln) is -2.48

For record ACCUAGCAAUAUUACGGCUC the listed self-splicing fitness (ln) is -0.922

For record AUACAGCAAUAUUACGAUUC the listed self-splicing fitness (ln) is -2.06

For record CACAAGCAAUAUUACGGGGG the listed self-splicing fitness (ln) is -3.12

For record AACGAGCAAUAUUACGGCGC the listed self-splicing fitness (ln) is -2.14

For record AUGAAGCAAUAUUACGCAUU the listed self-splicing fitness (ln) is -3.78
